Every entry's value here was drawn from paper PMC10500059.

- experimental_system: T1, RhlB (Escherichia coli, UniProt P0A8J8 1-421)
- T1 sequence: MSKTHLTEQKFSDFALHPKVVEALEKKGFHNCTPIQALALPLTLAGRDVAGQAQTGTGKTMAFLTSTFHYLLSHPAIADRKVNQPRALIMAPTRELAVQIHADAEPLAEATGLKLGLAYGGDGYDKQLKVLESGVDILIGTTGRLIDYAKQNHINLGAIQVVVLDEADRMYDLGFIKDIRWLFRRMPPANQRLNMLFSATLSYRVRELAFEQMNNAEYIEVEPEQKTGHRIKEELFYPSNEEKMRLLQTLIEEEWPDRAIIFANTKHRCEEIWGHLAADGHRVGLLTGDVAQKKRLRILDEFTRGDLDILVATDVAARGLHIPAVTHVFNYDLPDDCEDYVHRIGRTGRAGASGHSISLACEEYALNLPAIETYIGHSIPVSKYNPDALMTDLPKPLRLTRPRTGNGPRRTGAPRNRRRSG
- assay_method_text: NMR (1H imino titration); no ATP; 4.5 mM Mg2+; NMR: 150 mM KCl, 25 mM Tris/HCl, 5 mM DTT, 4.5 mM MgCl2, pH 8.3, 288 K, 100 µM RNA; EMSA: 150 mM NaCl, 25 mM Tris, 1.5 mM MgCl2, 5 mM DTT, 10% glycerol, pH 8.3, 4 C, 1.5 µM RNA
- condition_set: protein: recombinant; tags: C-terminal TEV site (ENLYFQG) + 6xHis; His-tag removed by TEV, site remnant left; label: none (titration); 3' overhang 8 nt
assay_metric: Kd (µM)
One number for each entry, in µM.

**Query** Would you kindly share the measured Kd for 3'-OV duplex (dsRNA) RNA 1: UAGUAACUAAAACAUUAAAUU RNA 2: GUUUUAGUUACUA ?
**Result** 216
